Readings of Protection index MCE (TD50/ED50) for the listed compounds
test system: male mice; assay: in vivo; format: in vivo; settings: TD50 per os/ED50 per os, MCE convulsions
# answer = number (no unit)

Here is how some compounds turned out for Protection index MCE (TD50/ED50).
compound: Cc1ccc(Cl)cc1N1CCN(C(=O)c2cccnc2)CC1 [Ex. 24]
observed.value: 6.3

compound: O=C(c1cccnc1)N1CCN(c2cccc(C(F)(F)F)c2)CC1
observed.value: 6.0

compound: CCCC(CCC)C(=O)[O-].[Na+] [VALP, sodium valproate, reference compound]
observed.value: 2.8

compound: Cc1cc(Cl)ccc1N1CCN(C(=O)c2cccnc2)CC1 [Ex. 23]
observed.value: 4.5

Lab note: next compound to report on.
I am curious: what Protection index MCE (TD50/ED50) value has been reported for Cc1ccc(Cl)cc1N1CCN(C(=O)c2cccnc2)CC1 [Ex. 25] ? 4.1

---

system: male mice; assay: in vivo; format: in vivo; conditions: mouse, in vivo, po
measured.quantity: Protection index PTZ (TD50/ED50)
# answer = number (no unit)

Here is how some compounds turned out for Protection index PTZ (TD50/ED50).
compound: Cc1ccccc1N1CCN(C(=O)c2cccnc2)CC1 [Ex. 14]
Protection index PTZ (TD50/ED50): 5.9

compound: CCOc1cccc(N2CCN(C(=O)c3cccnc3)CC2)c1 [Ex. 18]
Protection index PTZ (TD50/ED50): 4.0

compound: CN1C(=O)OC(C)(C)C1=O [TRIM, trimethadione, reference compound]
Protection index PTZ (TD50/ED50): 4.0

compound: O=C(c1cccnc1)N1CCN(c2ccccc2F)CC1 [Ex. 8]
Protection index PTZ (TD50/ED50): 2.8

Lab note: next compound to report on.
I am curious: what Protection index PTZ (TD50/ED50) value has been reported for CCOc1cccc(N2CCN(C(=O)c3cccnc3)CC2)c1 [Ex. 19] ? 1.8

---

experiment: oral toxicity in mice (LD50, mortality over 14 days); details: mouse, in vivo, po, LD50, per os, male mice; repeated in Table IV
measured.quantity: LD50 at 336 h (mg/kg)
Answer with a number only, understood to be in mg/kg.

Here is how some molecules turned out for LD50 at 336 h.
molecule: Cc1cc(Cl)ccc1N1CCN(C(=O)c2cccnc2)CC1
observed.value: 540

molecule: CCOc1cccc(N2CCN(C(=O)c3cccnc3)CC2)c1
observed.value: 540

Lab note: next molecule to report on.
I am curious: what LD50 at 336 h value has been reported for Cl.Cl.O=C(c1cccnc1)N1CCN(c2cccc(C(F)(F)F)c2)CC1 ? 575

---

System: male mice
Test: in vivo
Assay type: in vivo
Conditions: TD50 per os/ED50 per os, PTZ convulsions
Description: The animals (divided into groups each containing ten male mice per dose and per product) are installed on the rod and their fall is observed over the next two minutes.
Readings of Protection index PTZ (TD50/ED50) for the listed compounds
# answer = number (no unit)

Here is how some compounds turned out for Protection index PTZ (TD50/ED50).
compound: Cc1cc(Cl)ccc1N1CCN(C(=O)c2cccnc2)CC1 [Ex. 22]
Protection index PTZ (TD50/ED50): 5.4
--
compound: CCCC(CCC)C(=O)[O-].[Na+] [VALP, sodium valproate, reference compound]
Protection index PTZ (TD50/ED50): 2.7
--
compound: Cc1ccc(Cl)cc1N1CCN(C(=O)c2cccnc2)CC1 [Ex. 25]
Protection index PTZ (TD50/ED50): 4.5
--
compound: Cl.Cl.O=C(c1cccnc1)N1CCN(c2cccc(C(F)(F)F)c2)CC1
Protection index PTZ (TD50/ED50): 9.1
--
compound: Cc1cc(Cl)ccc1N1CCN(C(=O)c2cccnc2)CC1 [Ex. 23]
Protection index PTZ (TD50/ED50): 7.4

I am curious: what Protection index PTZ (TD50/ED50) value has been reported for Cc1ccc(Cl)cc1N1CCN(C(=O)c2cccnc2)CC1 [Ex. 24] ? 8.3

I am curious: what Protection index PTZ (TD50/ED50) value has been reported for Cc1ccccc1N1CCN(C(=O)c2cccnc2)CC1 ? 4.9

I am curious: what Protection index PTZ (TD50/ED50) value has been reported for O=C(c1cccnc1)N1CCN(c2cccc(C(F)(F)F)c2)CC1 ? 9.1

---

Readings of Protection index MCE (TD50/ED50) for the listed molecules
tested on: male mice; assay: in vivo; assay type: in vivo; conditions: TD50 per os/ED50 per os, MCE convulsions
# answer = number (no unit)

Here is how some molecules turned out for Protection index MCE (TD50/ED50).
molecule: Cc1ccccc1N1CCN(C(=O)c2cccnc2)CC1 [Ex. 13]
Protection index MCE (TD50/ED50): 4.0

molecule: Cc1cc(Cl)ccc1N1CCN(C(=O)c2cccnc2)CC1 [Ex. 22]
Protection index MCE (TD50/ED50): 3.4

I am curious: what Protection index MCE (TD50/ED50) value has been reported for Cl.Cl.O=C(c1cccnc1)N1CCN(c2cccc(C(F)(F)F)c2)CC1 [Ex. 1] ? 8.1

---

system: male mice; assay: in vivo; assay type: in vivo; settings: mouse, in vivo, po
measured.quantity: Protection index MCE (TD50/ED50)
# answer = number (no unit)

I am curious: what Protection index MCE (TD50/ED50) value has been reported for CCOc1cccc(N2CCN(C(=O)c3cccnc3)CC2)c1 [Ex. 19] ? 1.7

---

test system: convulsions induced by pentetrazole; assay: animal or person; settings: LD50 per os/ED50 per os, PTZ convulsions
measured.quantity: Therapeutic index PTZ (LD50/ED50)

compound: Cc1ccc(Cl)cc1N1CCN(C(=O)c2cccnc2)CC1 [Ex. 25]
measured.quantity: Therapeutic index PTZ (LD50/ED50)
observed.value: > 12.7
//
compound: Cc1cc(Cl)ccc1N1CCN(C(=O)c2cccnc2)CC1 [Ex. 23]
measured.quantity: Therapeutic index PTZ (LD50/ED50)
observed.value: > 8.1
//
compound: CCOc1cccc(N2CCN(C(=O)c3cccnc3)CC2)c1
measured.quantity: Therapeutic index PTZ (LD50/ED50)
observed.value: 7.5
//
compound: O=C(c1cccnc1)N1CCN(c2ccccc2F)CC1
measured.quantity: Therapeutic index PTZ (LD50/ED50)
observed.value: 5.6
//
compound: Cc1ccccc1N1CCN(C(=O)c2cccnc2)CC1
measured.quantity: Therapeutic index PTZ (LD50/ED50)
observed.value: 6.2

I am curious: what Therapeutic index PTZ (LD50/ED50) value has been reported for O=C(c1cccnc1)N1CCN(c2cccc(C(F)(F)F)c2)CC1 ? 32.5

I am curious: what Therapeutic index PTZ (LD50/ED50) value has been reported for CCCC(CCC)C(=O)[O-].[Na+] [VALP, sodium valproate, reference compound] ? 4.0

---

Readings of Therapeutic index MCE (LD50/ED50) for the listed molecules
tested on: convulsions induced by supra maximal electroshock (MCE); assay: animal or person; conditions: LD50 per os/ED50 per os, MCE convulsions

Here is how some molecules turned out for Therapeutic index MCE (LD50/ED50).
molecule: Cc1ccc(Cl)cc1N1CCN(C(=O)c2cccnc2)CC1 [Ex. 24]
Therapeutic index MCE (LD50/ED50): > 12.0
--
molecule: Cc1ccc(Cl)cc1N1CCN(C(=O)c2cccnc2)CC1 [Ex. 25]
Therapeutic index MCE (LD50/ED50): > 11.5

Lab note: next molecule to report on.
Notebook: pull reported Therapeutic index MCE (LD50/ED50) for convulsions induced by supra maximal electroshock (MCE), entry Cc1cc(Cl)ccc1N1CCN(C(=O)c2cccnc2)CC1 [Ex. 23] < 5.0

---

tested on: male mice; test: in vivo; type: in vivo; conditions: mouse, in vivo, po
Readings of Protection index MCE (TD50/ED50) for the listed molecules
# answer = number (no unit)

Here is how some molecules turned out for Protection index MCE (TD50/ED50).
molecule: CCOc1cccc(N2CCN(C(=O)c3cccnc3)CC2)c1 [Ex. 18]
Protection index MCE (TD50/ED50): 2.5
--
molecule: CN1C(=O)OC(C)(C)C1=O [TRIM, trimethadione, reference compound]
Protection index MCE (TD50/ED50): 2.0

I am curious: what Protection index MCE (TD50/ED50) value has been reported for O=C(c1cccnc1)N1CCN(c2ccccc2F)CC1 ? 2.8

---

system: convulsions induced by pentetrazole; test: animal or person; conditions: LD50 per os/ED50 per os, PTZ convulsions
Readings of Therapeutic index PTZ (LD50/ED50) for the listed compounds
# answer = number (no unit)

Here is how some compounds turned out for Therapeutic index PTZ (LD50/ED50).
compound: CN1C(=O)OC(C)(C)C1=O [TRIM, trimethadione, reference compound]
observed.value: 8.7

compound: Cl.Cl.O=C(c1cccnc1)N1CCN(c2cccc(C(F)(F)F)c2)CC1 [Ex. 1]
observed.value: 33.8

Lab note: next compound to report on.
I am curious: what Therapeutic index PTZ (LD50/ED50) value has been reported for Cc1cc(Cl)ccc1N1CCN(C(=O)c2cccnc2)CC1 [Ex. 22] ? 9.8
